target: LSD1 (Homo sapiens, UniProt O60341)
testReadout: IC50

Below are worked cases with known answers.
Cn1cc2cc(-n3nc(NC[C@@H]4CCC[C@@H](N)C4)c(Cl)c3-c3ccc(C#N)c(F)c3)ccc2n1: 1000 to 10000 nM
COc1ccc(-n2nc(NC[C@H]3CCC[C@H](CN)C3)cc2-c2ccc(C#N)c(F)c2)cc1: 500 to 1000 nM
COc1ccc(-n2nc(NCC3CC3N)cc2-c2ccc(C#N)c(F)c2)cc1 (single isomer, unassigned) [Example 29a]: 500 to 1000 nM
COc1ccc(-n2nc(NCC3CCCC(CN)C3)cc2-c2ccc(C#N)c(F)c2)cc1 (stereo not shown): 500 to 1000 nM
CN[C@H]1CCCC(CNc2cc(-c3ccc(C#N)c(F)c3)n(-c3ccc(OC)cc3)n2)C1 (single isomer, unassigned) [Example 32a]: < 500 nM

Reported IC50 (LSD1 (Homo sapiens, UniProt O60341)) for entry CN[C@H]1CCC[C@H](CNc2cc(-c3ccc(C#N)c(F)c3)n(-c3ccc(OC)cc3)n2)C1 (single isomer, unassigned) [Example 33a] is 500 to 1000 nM

Recorded IC50 for Cn1cc2cc(-n3nc(NC[C@H]4CCC[C@H](N)C4)cc3-c3ccc(C#N)c(F)c3)ccc2n1 [Example 13SS] on LSD1 (Homo sapiens, UniProt O60341) was < 500 nM

Log: LSD1 (Homo sapiens, UniProt O60341), compound CC1(O)CCN(c2ccc(-n3nc(NC[C@H]4CCC[C@H](N)C4)cc3-c3ccc(C#N)c(F)c3)c(F)c2)CC1 [Example 116, 2,2,2-trifluoroacetate] , IC50 = < 500 nM

So the reported IC50 for N#Cc1ccc(-c2cc(NCC3CNCCO3)nn2-c2ccc(N3CCS(=O)(=O)CC3)cc2F)cc1F (stereo not shown) [Example 108, 2,2,2-trifluoroacetate] , on LSD1 (Homo sapiens, UniProt O60341), turned out to be < 500 nM

IC50 of COC1CCN(c2ccc(-n3nc(NC[C@H]4CCC[C@H](N)C4)cc3-c3ccc(C#N)c(F)c3)nc2)CC1 [Example 120, 2,2,2-trifluoroacetate] , assay on LSD1 (Homo sapiens, UniProt O60341), is < 500 nM

Entry N#Cc1ccc(-c2cc(NC[C@H]3CCCNCC3)nn2-c2ccc(N3CCN(CCO)CC3)cc2)cc1F (single isomer, unassigned) [Example 27b] , tested on LSD1 (Homo sapiens, UniProt O60341), has a reported IC50 of < 500 nM

Reported LSD1 (Homo sapiens, UniProt O60341) IC50 for item COc1cc(N2CCC(C)(O)CC2)ccc1-n1nc(NC[C@H]2CCC[C@H](N)C2)cc1-c1ccc(C#N)c(F)c1 [Example 115, 2,2,2-trifluoroacetate] was 1000 to 10000 nM

Bench note, LSD1 (Homo sapiens, UniProt O60341): N#Cc1ccc(-c2cc(NCC3CCCNCC3)nn2-c2ccc(N3CCS(=O)(=O)CC3)c(F)c2)cc1F (stereo not shown) [Example 110, 2,2,2-trifluoroacetate] , IC50 reads < 500 nM

====

Please consider the recorded IC50 for LSD1 (Homo sapiens) in what follows.

CN[C@@H]1CCC[C@@H](CNc2cc(-c3ccc(C#N)c(F)c3)n(-c3ccc(OC)cc3)n2)C1 (single isomer, unassigned) [Example 33b]: < 500 nM
Cn1nnc2cc(-n3nc(NC[C@H]4CCC[C@H](N)C4)cc3-c3ccc(C#N)c(F)c3)ccc21: < 500 nM

Let us examine a further case.
IC50 for COC1(C)CCN(c2ccc(-n3nc(NCC45CCN(CC4)CC5)cc3-c3ccc(C#N)c(F)c3)cc2)CC1 [Example 125, 2,2,2-trifluoroacetate] is < 500 nM
